test system: human Factor XI mRNA; assay: Dose-dependent antisense inhibition in HepG2 cells, lipofectin (Example 2); type: cell-based; conditions: 150 nM, approximately 16 hours
In the oligonucleotide strings, read from the 5' end, every base follows the letter of its sugar. An asterisk marks phosphorothioate; unmarked linkages are phosphodiester. Other units and linkages are bracketed, terminal groups are in braces. A string of capitals states the bases alone. e = 2'-O-(2-methoxyethyl) (MOE); [5mC] = 5-methylcytosine; d = 2'-deoxy (DNA)
Recorded percent inhibition of Factor XI values for a group of substances are listed next.
measurement.type: percent inhibition of Factor XI (%)

substance | measurement
412224 (antisense GCATTGGTGCACAGTTTCTG; sugars from the 5' end e5 d10 e5, backbone and methylation of C not given here) [compound 412224] | 81
412225 (antisense GCAGCGGACGGCATTGGTGC; sugars from the 5' end e5 d10 e5, backbone and methylation of C not given here) [compound 412225] | 73
412203 (antisense eA*eA*eT*eG*eT*d[5mC]*dT*dT*dT*dG*dT*dT*dG*d[5mC]*dA*eA*eG*e[5mC]*eG*e[5mC]) [compound 412203] | 82
413476 (antisense eT*eT*eG*eA*eG*dA*dT*dT*d[5mC]*dT*dT*dT*dG*dG*dG*e[5mC]*e[5mC]*eA*eT*eT) [compound 413476] | 82
413481 (antisense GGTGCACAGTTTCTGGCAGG; sugars from the 5' end e5 d10 e5, backbone and methylation of C not given here) [compound 413481] | 83

* * *

test system: human Factor XI mRNA; assay: Dose-dependent inhibition and IC50 in HepG2 cells, electroporation (Example 15); type: cell-based; details: electroporation, 1,111.11 nM
In the oligonucleotide strings, read from the 5' end, every base follows the letter of its sugar. An asterisk marks phosphorothioate; unmarked linkages are phosphodiester. Other units and linkages are bracketed, terminal groups are in braces. A string of capitals states the bases alone. e = 2'-O-(2-methoxyethyl) (MOE); [5mC] = 5-methylcytosine; d = 2'-deoxy (DNA)

substance | measured.target | percent inhibition of Factor XI mRNA (%)
416851 (antisense GTGCACAGTTTCTGGCAGGC; 5-10-5 gapmer, wing sugar chemistry not given here, further chemistry not given here) [compound 416851] | human Factor XI mRNA | 36
445532 (antisense e[5mC]*eG*eG*e[5mC]*eA*dT*dT*dG*dG*dT*dG*d[5mC]*dA*e[5mC]*eA*eG*eT*eT) [compound 445532] | human Factor XI mRNA | 39
445503 (antisense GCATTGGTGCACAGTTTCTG; 6-8-6 gapmer chemical modifications, chemistry not fully specified) [compound 445503] | human Factor XI mRNA | 22

* * *

test system: IL-1β, IL-6, IFN-γ, TNF-α, IL-8, MIP-1α, MCP-1, MIP-10, RANTES; assay: Cynomolgus monkeys: cytokine and chemokine assays (Example 30); assay type: in vivo; details: day −14 (before start of treatment)
In the oligonucleotide strings, read from the 5' end, every base follows the letter of its sugar. An asterisk marks phosphorothioate; unmarked linkages are phosphodiester. Other units and linkages are bracketed, terminal groups are in braces. A string of capitals states the bases alone. e = 2'-O-(2-methoxyethyl) (MOE); [5mC] = 5-methylcytosine; d = 2'-deoxy (DNA)
Criterion: MIP-1β level strictly under 20 pg/mL. Met: y. Not met: n.

substance | assigned.category
ISIS 445531: microwalk gapmer of Table 51 (antisense eG*eG*e[5mC]*eA*eT*dT*dG*dG*dT*dG*d[5mC]*dA*d[5mC]*eA*eG*eT*eT*eT) | n
ISIS 449711: microwalk gapmer of Table 53 (antisense eA*e[5mC]*dA*dG*dT*dT*dT*d[5mC]*dT*dG*dG*d[5mC]*eA*eG) | n
ISIS 449707: microwalk gapmer of Table 53 (antisense e[5mC]*eA*e[5mC]*eA*dG*dT*dT*dT*d[5mC]*dT*dG*dG*e[5mC]*eA*eG*eG) | y
ISIS 449709: microwalk gapmer of Table 53 (antisense eG*e[5mC]*eA*e[5mC]*dA*dG*dT*dT*dT*d[5mC]*dT*dG*dG*d[5mC]*eA*eG*eG*e[5mC]) | y
ISIS 449708: microwalk gapmer of Table 53 (antisense eA*e[5mC]*eA*dG*dT*dT*dT*d[5mC]*dT*dG*dG*e[5mC]*eA*eG) | y
ISIS 416858: gapmer of Table 8 (antisense eA*e[5mC]*eG*eG*e[5mC]*dA*dT*dT*dG*dG*dT*dG*d[5mC]*dA*d[5mC]*eA*eG*eT*eT*eT) | n
ISIS 445522: microwalk gapmer of Table 51 (antisense eG*e[5mC]*eA*e[5mC]*eA*dG*dT*dT*dT*d[5mC]*dT*dG*dG*e[5mC]*eA*eG*eG*e[5mC]) | n
ISIS 416850: gapmer of Table 8 (antisense eT*eG*e[5mC]*eA*e[5mC]*dA*dG*dT*dT*dT*d[5mC]*dT*dG*dG*d[5mC]*eA*eG*eG*e[5mC]*e[5mC]) | n
ISIS 449710: microwalk gapmer of Table 53 (antisense e[5mC]*eA*e[5mC]*dA*dG*dT*dT*dT*d[5mC]*dT*dG*dG*d[5mC]*eA*eG*eG) | y
